Test system: monocytic THP1 cells infected with HIV VSV-G pseudotyped GFP-NEF reporter virus
Test: cells
Format: cell-based
Conditions: Human immunodeficiency virus 1, THP-1, 24 h
Lab note: cut-off is 50 nM. Strictly less in EC50 is y. Exactly 50 nM or more is n.

Sample answers from the record:
- compound: "Cc1cc(/C=C/C#N)cc(C)c1Oc1nc(NC23CC(C#N)(C2)C3)nc2[nH]nc(-c3ccn(C)n3)c12"
  assigned.label: "n"
- compound: "Cc1cc(/C=C/C#N)cc(C)c1Oc1nc(NC23CC(C#N)(C2)C3)nc2c1C1(C)OCCN1C2=O (stereo not shown)"
  assigned.label: "y"
- compound: "Cc1nc2nc(NC34CC(C#N)(C3)C4)nc(Oc3c(C)cc(/C=C/C#N)cc3C)c2[nH]1"
  assigned.label: "n"

Lookup: # strict comparison: is reported EC50 < 50 nM? input = CCc1cc(/C=C/C#N)cc(Cl)c1Oc1nc(NC23CC(C#N)(C2)C3)nc2nn(C)cc12
Found: y

Lookup: Item Cc1cc(/C=C/C#N)cc(C)c1Oc1nc(NC23CC(C#N)(C2)C3)nc2c1cnn2C : EC50 beneath 50 nM, strictly?
Found: n

Origin of the recorded values: patent US20250333424A1
